SYSTEM: T1, biotinylated human IL-33 (human, UniProt O95760 112-270, biotin-labeled with EZ-LINK NHS-PEG4-Biotin)
T1 construct: also called biotin-huIL-33
T1 sequence (looked up): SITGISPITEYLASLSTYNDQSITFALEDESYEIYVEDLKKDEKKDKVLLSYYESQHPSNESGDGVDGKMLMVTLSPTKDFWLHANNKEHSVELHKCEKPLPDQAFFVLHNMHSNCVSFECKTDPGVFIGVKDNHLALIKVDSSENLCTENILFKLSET
ASSAY OVERVIEW: competitive ELISA, biotin-huIL-33 to coated hST2-Fc
In this section we review reported IC50 values for a set of binders.
Hi! Could you send only the number? It should be in nM, unit omitted.

Worked cases, answers included:
{"BINDER": "H1M9559N (antibody, IgG1, V domains shown, also called RG1) VH: QVQLVESGGGVVQPGRSLRLSCAASGFTFSSYGMHWVRQAPGKGLEWVAVIWYDGRNKYYTDSVKGRFTISRDNSKNTLYLQMDSLRAEDTAVYYCARERYISSYYGGFDPWGQGALVTVSS VL: DIQMTQSPSSVSASVGDRVTITCRASQGISSWLAWYQQKPGKAPKVLIYAASSLQSGVPSRFSGSGSGTDFTLTISSLQPEDFATYYCQQANSFPFTFGPGTKLDIK", "UNIT ANNOTATION": "nM", "IC50": 4.1}
{"BINDER": "H4H9633P (antibody, IgG4, V domains shown, also called RG5) VH: EVQLVESGGGLVQPGGSLRLSCAASGFTFSSYVMSWVRQAPGKGLEWVSSISGNGGSTNYADSVKGRFTISRDNSKNTLFLEMNSLRAEDTAVYYCAKSLGTTTTFLGFDYWGQGTLVTVSS VL: DIQMTQSPSSVSASVGDRVTITCRASQGISSWLAWYQQKPGKAPKLLIYAASSLQSGVPSRFSGSGSGTYFTLTISSLQPEDFATYYCQQANSFPLTFGGGTKVEIK", "UNIT ANNOTATION": "nM", "IC50": 1.1}

Quick one: IC50 for H4H9629P (antibody, IgG4, V domains shown, also called RG4) VH: EVQLVESGGGLVQPGGSLRLSCAASGFTFRSFAMSWVRQAPGKGLELVSDLRTSGGSTYYADSVKGRLTISRDNSKNTLYLQMNSLRAEDTAVYYCAKSHYSTSWFGGFDYWGQGTLVTVSS VL: DIQMTQSPSSVSASVGDRVTITCRASQGFSSWLAWYQQKPGKAPKLLIYAASSLQSGVPSRFSGSGSGTDFTLTITNLQPEDFATYYCQQANSFPLTFGGGTKVEIK ?
0.092

Try the binder H1M9566N (antibody, IgG1, V domains shown, also called RG2) VH: EVQLLESGGDLVQPGGSLRLSCAASGFTFSSYAMSWVRQAPGKGLEWVSVISGSGSSTDYADSVKGRFTISRDNSRDTLHLQMNSLRAEDTAVYYCAKTFYYFYGLDVWGQGTTVTVSS VL: DIQMTQSPSSLSASLRDRVTITCRASQGISNYLAWYQQKPGKVPKVLIYAASTLQSGVPSRFSGSGSGTVFTLTISSLQTEDVATYYCQKYSSAPFTFGPGTKVDIK
0.099

Try the binder H1M9568N (antibody, IgG1, V domains shown, also called RG3) VH: QVLLVQSGAEVKKPGATVKVSCKASGSTFTGYYMHWVRQAPGQGLEWMGWINPNNGGTNYAQKFQGRVTMTRDTSISTAYMELSRLRSDDTAVYYCARELRYNWKSWGQGTLVTVSS VL: EIVLTQSPGTLSLSPGERVTLSCRASQSVGRPYLAWYQQIPGQAPRLLIYGASSRATDIPDRFSGNGSGTDFTLTISRLEPEDFAVYYCQQYDNSPYTFGQGTRLEIK
0.19

Try the binder H4H9659P (antibody, IgG4, V domains shown, also called RG7) VH: QVQLVQSGAEVKKPGASVKVSCKASGYTFNSYGISWVRQAPGQGLEWMGWISSHNGNSHYVQKFQGRVSMTTDTSTSTAYMELRSLRSDDTAVYYCARHSYTTSWYGGFDYWGQGTLVTVSS VL: DIQMTQSPSSVSASVGDRVTITCRASQGFSSWLAWYQQKPGKAPQLLIYAASSLQSGVPSRFSGSGSGSDFTLTISSLQPEDFATYYCQQANSFPLTFGGGTKVEIK
0.23
